Test system: HOP-62 NSCLC
Assay Info: NCI-60 one-dose screen, 48 h
Assay Conditions: 10 µM
Compounds without any hit were thinned out: in the full panel of roughly 83,000, 20% have a hit. Active and inactive are the calls of the source. How the source made its calls: active means growth percent below 10; inactive means the rest.
Answer with one of the outcomes given here: active, inactive

Use the examples below as a reference point.
Compound	Assigned Class
CC1(CO)CCCC12OCCO2 (stereo unspecified)	inactive
COc1cc(-c2nc3ccc(C)cc3[nH]2)ccc1OCC(=O)N=Nc1c(O)[nH]c2ccccc12	active
CC(C)CCN(CCCNc1c2c(nc3cc(Cl)ccc13)CCCC2)CCC(C)C	inactive
CCOC(=O)CSC(=S)SCC(=O)OCC	inactive
COc1cc2c3c(cccc3c1)C(=O)N(CCN1CCCC1)C2=O	inactive

Q: Field: outcome | Entry: CC(CNC(Cc1ccccc1)c1ccccc1)NC(Cc1ccccc1)c1ccccc1 (stereo unspecified)
Result: inactive

Q: What call does the record list for Nc1cc2c(cc1Cl)-c1ccc(Cl)cc1C2=O ?
Result: inactive

Q: Name the outcome recorded for O=C(COCc1c(-c2ccccc2)no[n+]1[O-])Nc1nc(-c2ccc(Cl)cc2)cs1 in the assay.
Result: inactive

Q: Tell me the assay call for Nc1c(C(=O)NC2CCCCC2)sc2nc3c(cc12)C(=O)CCC3 please.
Result: inactive

Q: Please share the test call associated with Cc1ccc([P+](Cc2ccccc2)(c2ccccc2)c2ccccc2)cc1 .
Result: inactive

Q: Just curious, what result did O=C(/C=C/c1ccc(Cl)cc1)c1ccc(Br)cc1 get here?
Result: inactive

====

System: U251 CNS
Assay Info: NCI-60 one-dose screen, 48 h (100 = growth as untreated, 0 = no growth, -100 = all killed)
Assay Conditions: 10 µM
About 83,000 compounds went through this panel and 20% of them were active in at least one assay; those are over-represented in the sample as a whole.
Response field label: string, one of Y (growth strictly below 80%) or N.

Compound	Measurement Target	Assigned Class
COc1ccc(-c2[nH]ncc2-c2cc(OC)c(OC)c(OC)c2)cc1	U251 CNS	Y
C=CCNC(=S)NN	U251 CNS	Y
N#CC1C=Cc2c(ccc3ccccc23)N1C(=O)c1ccccc1 (stereo unspecified)	U251 CNS	Y
CC(C)(C)CC(C)(C)c1ccc(O)c(Cc2ccc(Cl)cc2Cl)c1	U251 CNS	Y
Cc1ccc([P+](Cc2ccccc2)(c2ccccc2)c2ccccc2)cc1	U251 CNS	Y

Q: State whether 80% exceeds growth recorded for Cc1ccc(C(=O)O)c(N)c1C .
Result: N

Q: Check if growth falls below 80% for COc1ccc(Nc2ccnc(N3CCN(c4ccnc5cc(Cl)ccc45)CC3)n2)cc1 .
Result: Y

Q: Consider the compound O=C(/C=C/c1nnc2n(Cc3ccccc3)c(=O)c3c4c(sc3n12)CCCC4)c1ccccc1 . Is its growth strictly less than 80%?
Result: Y

Q: Just wondering, is growth of N#Cc1c2c([nH]c(=O)c1C(N)=O)CCCCC2 below 80%?
Result: N

Q: Just wondering, is growth of O=C(O)CCCCSCCCCC(=O)O below 80%?
Result: N

====

Tested on: UACC-257 melanoma
Assay Info: NCI-60 one-dose screen, 48 h
Assay Conditions: 10 µM
About 83,000 compounds went through this panel and 20% of them were active in at least one assay; those are over-represented in the sample as a whole. Activity calls are given as the source filed them. How the source made its calls: active means growth percent below 10; inactive means the rest.
Outcome (select one): yes for active, no for inactive

Q: Tell me the assay call for c1ccc(OCCC[P+](c2ccccc2)(c2ccccc2)c2ccccc2)cc1 please.
Result: yes

Q: Identify the outcome logged in this assay for the compound shown: O=C(NCCc1nccs1)c1cnc2c(S)cccc2c1
Result: no

Q: Query: recorded result category for COc1cccc2c1O/C(=C\c1ncc([N+](=O)[O-])n1C)C2=O in this test
Result: yes

Q: What was the test verdict on Nc1ccccc1NC(=O)CCCCCCC(=O)Nc1ccc2c(c1)/C(=C/c1ccc[nH]1)C(=O)N2 ?
Result: no

Q: I would be grateful if you could indicate the recorded call for C#CCn1c(-c2cccc(OCCCCl)c2)nc2c1c(=O)n(C)c(=O)n2C .
Result: no

Q: # outcome recorded in this test, key = COC(=O)c1cnc2c(c1)Oc1ccc(Cl)cc1-c1cc(C)nn1-2
Result: no

====

Tested on: CCRF-CEM leukemia
Assay Info: NCI-60 one-dose screen, 48 h
Assay Conditions: 10 µM
The panel holds about 83,000 compounds, 20% with a hit somewhere; the sample as a whole holds those more often. The source made the active and inactive calls. How the source made its calls: active means growth percent below 10; inactive means the rest.
Outcomes you can answer with include only these: 1.0 for active, 0.0 for inactive

Would you please look over these solved cases?
Sample Smiles	Measurement Target	Assigned Class
C(=C\c1nc2ccccc2s1)/c1ccc(N2CCOCC2)s1	CCRF-CEM leukemia	0.0
C=C1C(=O)O[C@H]2[C@H]1CC/C(COC(=O)OCCCCCOC(=O)OC/C1=C/CC[C@@]3(C)O[C@H]3[C@H]3OC(=O)C(=C)[C@@H]3CC1)=C\CC[C@@]1(C)O[C@@H]21	CCRF-CEM leukemia	1.0
CCCN(CCC)CCCNC(=O)c1cc2c(-c3ccc(OC)c(OC)c3)nn(C)c2s1	CCRF-CEM leukemia	1.0

Q: Lab log entry: Fc1ccc(-c2cc(C(Cl)Cl)no2)cc1 — outcome as called in the assay?
Result: 0.0

Q: What did the test return for COc1cc2nc(Sc3sc(N)nc3C)n(-c3ccc(Oc4ccccc4)cc3)c(=O)c2cc1OC ?
Result: 0.0

Q: Assay result, entry FC(F)(F)c1ccc(-c2ncc(-c3ccc(C(F)(F)F)cc3)c(NCc3cc(C(F)(F)F)cc(C(F)(F)F)c3)n2)cc1 — outcome?
Result: 0.0

Q: Which outcome was entered for the compound O=[N+]([O-])c1ccc2c(c1)Cc1cc(I)ccc1-2 in this test?
Result: 0.0

Q: Field: outcome | Entry: FC(F)(F)c1ccc(-c2cnc(Cl)nc2NC2CCCCCC2)cc1
Result: 0.0

Q: Identify the outcome logged in this assay for the compound shown: COc1cc(/C=C2\C(=O)Nc3cc(C)c(O)cc32)cc(OC)c1OC
Result: 0.0

====

The following compounds are listed with their measured growth values.
System: SK-MEL-5 melanoma
Assay Info: NCI-60 one-dose screen, 48 h (100 = growth as untreated, 0 = no growth, -100 = all killed)
Assay Conditions: 10 µM
About 83,000 compounds went through this panel and 20% of them were active in at least one assay; those are over-represented in the sample as a whole.
Reply numerically in %, unit not repeated.

Solved cases (10 shown):
Compound	Readout Units	growth
Brc1ccc(-c2cn3ccnc3c(-c3ccc(Br)cc3)n2)cc1	%	46.3
O=C1/C(=C/c2ccc([N+](=O)[O-])s2)Oc2ccc(Cl)cc21	%	-88.7
Clc1cc(Cl)c(OCCCCCCN2CCNCC2)c(Cl)c1	%	-15.6
Cc1cc(/C=C2\SC(=Nc3ccccc3)N(C3CCCC3)C2=O)c(C)n1-c1ccc(Cl)cc1	%	-97.9
CNC(=O)c1cc(Oc2ccc(NC(=O)Nc3ccc(Cl)c(C(C)(C)C)c3)c(F)c2)ccn1	%	-23.2
Cc1ccc(C(=O)O)c(N)c1C	%	107
Cc1nnc2c3nnc(-c4ccc(Cl)cc4)n3c3ccccc3n12	%	99.7
CC1(C)CNC(=O)N1	%	82.6
O=C(c1ccccc1)C(Nc1ccccc1)c1ccccc1 (stereo unspecified)	%	85.6
COc1cc(C2=Nc3c/c(=C\c4c(O)[nH]c5ccc(Cl)cc45)ccc3=N2)cc(OC)c1OC	%	-92.2

Next compound, growth to be filled in.
Q: Give the reported value of growth for this record: COc1c(-c2c3sc(=O)[nH]c3nc3c2c(=O)[nH]n3C(C)C)cc2c(c1OC)OCO2
Result: 102

====

Test system: RXF 393 renal
Assay Info: NCI-60 one-dose screen, 48 h (100 = growth as untreated, 0 = no growth, -100 = all killed)
Assay Conditions: 10 µM
Compounds without any hit were thinned out: in the full panel of roughly 83,000, 20% have a hit.
Hi! Just check whether growth is below 50%. Below gives MET, equal or above gives NOT MET.

Previously resolved entries follow.
Compound	Assigned Class
CCSc1nc2c([nH]1)c(=O)n(C)c(=S)n2C	NOT MET
CC1(C)CNC(=O)N1	NOT MET
Nc1nc(SCC#CCCl)c2[nH]cnc2n1	MET
CCCCC(=O)N(c1ccc(Nc2c3ccccc3nc3cc([N+](=O)[O-])ccc23)cc1)S(C)(=O)=O	NOT MET
CCOC(=O)c1cc(-c2ccccc2)nc(N)n1	NOT MET

With those in mind, consider the next compound.
Q: Say whether its growth is strictly beneath 50%. Entry: COc1ccc(C2CC(c3ccc(-c4ccccc4)cc3)=NN2c2ccc(S(N)(=O)=O)cc2)cc1 (stereo unspecified)
Result: NOT MET

====

System: KM12 colon
Assay Info: NCI-60 one-dose screen, 48 h
Assay Conditions: 10 µM
Compounds without any hit were thinned out: in the full panel of roughly 83,000, 20% have a hit. Calls of active or inactive are those of the source. Rule for the calls: active = growth percent below 10; inactive = the rest.
Output constraint: value belongs to active, inactive

See these solved cases before continuing.
Compound	Measurement Target	Assigned Class
O=S(=O)(NCl)c1ccccc1	KM12 colon	inactive
C=C1C(=O)O[C@H]2[C@H]1CC/C(COC(=O)OCCCCCOC(=O)OC/C1=C/CC[C@@]3(C)O[C@H]3[C@H]3OC(=O)C(=C)[C@@H]3CC1)=C\CC[C@@]1(C)O[C@@H]21	KM12 colon	active
O=C(O)CCCN1C(=O)NC2(C1=O)c1ccccc1-c1ccccc12	KM12 colon	inactive

Q: Give the logged outcome of this assay for the following compound: CC(C)=C1CCC(C)C/C1=N\N=C(N)N (stereo not given)
Result: inactive

Q: For this compound, state the assay outcome: O=C(Nc1cccc([N+](=O)[O-])c1)NN1CCCCCC1
Result: inactive
